molecule	melting point
Cn1cc(SC(C)(C)C)c(=O)c(-c2ccc(Cl)c(C(F)(F)F)c2)c1	138 to 142 °C
Cc1ccc([N+](=O)[O-])c(CO)c1C	48 to 51 °C
CC(C)(C)OC(=O)c1ccc(NC2CCc3cc(NC(=O)COCc4ccccc4)c(C#N)cc32)cc1 (centres undefined)	194 to 195 °C
[O-][N+](=Cc1ccccc1)CCCCCC[N+]([O-])=Cc1ccccc1	105 °C
Cc1ccc(-c2ccc3c(c2)C=C(C(=O)NC2CCN(C(=O)OC(C)(C)C)CC2)CCO3)cc1	205 to 208 °C
Nc1cccc(Oc2cccc3cccnc23)c1	98 to 100 °C
O=C1N(c2ccc(Cl)cc2Cl)Cc2cnc(Nc3ccccc3)nc2N1c1cccc(CCO)c1	213 to 217 °C
O=C(O)C1CCN2c3ccccc3Cc3ccccc3C2C1 (centres undefined)	207 to 209 °C
CCOC(Cn1cncn1)(c1ccc(F)cc1F)C(F)(F)S(=O)(=O)CCO (centres undefined)	150 to 153 °C
Cc1nc(C=O)c2n1-c1ccc(Cl)cc1C(c1ccccc1F)=NC2	190 to 192 °C
OCCC#CC1CCC(COc2ccc(F)cc2)O1 (mixture of isomers)	76 °C
Cc1ccc(S(=O)(=O)NC(=O)OCCc2ccc(-n3c(CCC(=O)c4cccnc4)nc4cc(C(F)(F)F)c(Cl)cc43)cc2)cc1	89 to 95 °C
Cc1ncc2c(n1)-c1ccc(Cl)cc1C(c1ccccc1Cl)=NC2	193 to 197 °C
O=C(c1ccccc1)N1CCc2[nH]c3cccc(-c4ccccc4OC4CCCC4)c3c2CC1	187 to 189 °C
CN(C1CCNCC1)S(=O)(=O)c1ccc(Nc2nccc(-c3ccc(F)cc3)n2)cc1	116 °C
c1ccc(-c2coc3c2ccc2ccccc23)cc1	98 to 109 °C
COc1ccc(CSc2cccnc2C(=O)O)cc1	170 to 172 °C
CC(C)OC1C=CC(=O)N1S(=O)(=O)c1ccccc1 (centres undefined)	148 to 149 °C
N#Cc1cc(F)c(-n2c(=O)cc(C(F)(F)F)[nH]c2=O)cc1Oc1ccc2ccccc2c1	92 °C
